molecular target: alanyl aminopeptidases (APN) (Homo sapiens); assay: Inhibition of alanyl aminopeptidase enzymatic activity, fluorogenic substrate (Ala)2-rhodamine 110; format: biochemical; settings: Table 8, unstarred values; read-out: IC50APN
# pIC50 per entry
pIC50 is defined as minus the log10 of a concentration measured in mol/L.

Worked cases, pIC50 given:
INSERT INTO measurements (compound, experimental_endpoint, endpoint_value) VALUES
  ('C/C(=N\N=C1\SC(CC(=O)O)C(=O)N1c1ccccc1)c1ccco1 (stereo not shown)', 'pIC50', 4.54),
  ('Cc1cc(=O)[nH]c(N/N=C/c2ccco2)n1', 'pIC50', 4.74),
  ('Cc1cccc(C)c1Nc1c(-c2ccccc2NC(=O)Nc2ccccc2)nc2c(C(=O)NCc3ccc(F)cc3)cccn12', 'pIC50', 4.83);

Ask | Data request, read-out pIC50, for Cc1cccc(C)c1Nc1c(-c2ccccc2NC(=O)Nc2ccc(OC(F)(F)F)cc2)nc2c(C(=O)NCC(C)C)cccn12
Reply | 4.50

Ask | Need pIC50 of O=C1C(Cc2ccc3[nH]ccc3c2)NC(=S)N1c1ccccc1 (stereo not shown) [A8.029] , thanks.
Reply | 4.43

Ask | # query: pIC50 of entry Cn1c(=O)c2c(nc3sccn32)n(C)c1=O
Reply | 4.84

Ask | Reported pIC50, compound Cc1cccc(C)c1NC(=S)NC(=O)c1cccs1 : ____
Reply | 4.89

Ask | Dear colleague, I am looking for the recorded pIC50 of the following compound: COC(=O)N/N=C(C)\C=C\c1ccco1
Reply | 4.87

Ask | Would you mind telling me what pIC50 value was observed for COC(=O)C1=C(C(=O)OC)C(c2cc(Br)ccc2O)c2sc(O)nc2S1 (stereo not shown) ?
Reply | 5.33

Ask | Suppose we examine the compound CC1SC(N/N=C/c2ccco2)=NC1=O (stereo not shown) ; what pIC50 value has been reported?
Reply | 5.10

----------
Reported IC50 values for the following compounds.
biological target: alanyl aminopeptidases (APN) (Homo sapiens, UniProt P15144); assay: Inhibition of alanyl aminopeptidase enzymatic activity, fluorogenic substrate (Ala)2-rhodamine 110; type: biochemical; details: Table 12; read-out: IC50APN
Sequence (P15144 whole entry, species assumed): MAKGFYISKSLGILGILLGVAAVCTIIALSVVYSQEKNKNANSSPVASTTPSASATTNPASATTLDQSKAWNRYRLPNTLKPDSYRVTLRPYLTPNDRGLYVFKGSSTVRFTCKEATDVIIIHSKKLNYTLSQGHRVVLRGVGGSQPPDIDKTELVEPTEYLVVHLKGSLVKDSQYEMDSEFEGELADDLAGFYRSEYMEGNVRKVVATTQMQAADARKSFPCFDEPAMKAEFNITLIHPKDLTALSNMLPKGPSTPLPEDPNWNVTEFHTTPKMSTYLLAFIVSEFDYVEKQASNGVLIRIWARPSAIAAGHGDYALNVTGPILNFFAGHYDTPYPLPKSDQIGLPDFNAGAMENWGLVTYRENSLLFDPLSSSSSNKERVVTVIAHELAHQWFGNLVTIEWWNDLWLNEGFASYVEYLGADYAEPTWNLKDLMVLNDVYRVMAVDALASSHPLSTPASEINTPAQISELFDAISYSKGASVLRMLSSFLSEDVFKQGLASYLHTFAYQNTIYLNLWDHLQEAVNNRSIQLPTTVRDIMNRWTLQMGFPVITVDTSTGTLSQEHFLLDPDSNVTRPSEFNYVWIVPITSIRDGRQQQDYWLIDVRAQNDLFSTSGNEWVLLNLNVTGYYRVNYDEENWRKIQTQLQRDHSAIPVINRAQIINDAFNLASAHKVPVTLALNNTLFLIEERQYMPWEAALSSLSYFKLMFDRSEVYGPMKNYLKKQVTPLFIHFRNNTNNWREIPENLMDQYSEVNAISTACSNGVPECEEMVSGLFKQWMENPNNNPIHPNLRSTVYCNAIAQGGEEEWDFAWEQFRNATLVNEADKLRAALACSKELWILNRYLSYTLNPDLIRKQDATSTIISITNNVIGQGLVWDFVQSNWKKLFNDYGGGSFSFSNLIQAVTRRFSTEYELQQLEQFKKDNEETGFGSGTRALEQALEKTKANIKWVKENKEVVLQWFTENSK
Value and unit, in that order.

INSERT INTO results (compound, endpoint_value) VALUES
  ('CC(C)COc1ccc(C(=O)N/C(=C\c2ccco2)C(=O)N2CCOCC2)cc1', '13.1 µM');

Could you now consider this next compound?
Ask | Looking for the measured IC50 of COC(=O)c1ccc(-c2ccc(/C=C3\C(=O)N(CCCO)C(=O)C(C#N)=C3C)o2)cc1 , can you help?
Reply | 5 µM

----------
molecular target: alanyl aminopeptidases (APN) (Homo sapiens, UniProt P15144); experiment: Inhibition of alanyl aminopeptidase enzymatic activity, fluorogenic substrate (Ala)2-rhodamine 110; format: biochemical; details: Table 3, unstarred values; read-out: IC50APN
# pIC50 per entry
Kindly note that pIC50 refers to -log10 of the concentration in mol/L and answer with the value alone.

Worked examples follow.
INSERT INTO measurements (smiles_input, experimental_endpoint, endpoint_value) VALUES
  ('CCN(CC)C(=O)/C(=C/c1ccco1)NC(=O)c1ccccc1', 'pIC50', 4.89),
  ('O=C(N/C(=C\c1ccco1)C(=O)N1CCOCC1)c1ccco1', 'pIC50', 4.87);

# input for lookup
Ask | Suppose we examine the compound N/C(=N\N=C\c1ccco1)c1nonc1N ; what pIC50 value has been reported?
Reply | 4.84
